Test: Cytoprotection against DOX-induced toxicity, CCK-8 assay
Format: cell-based
Settings: rat, H9c2 cells; DOX 5 μM, 24 h, CCK-8; read-out: cell viability, DOX alone
result.type: viability at 24 h, 5 µM

Reported viability at 24 h, 5 µM, molecule COc1cccc2c1C(=O)c1c(O)c3c(c(O)c1C2=O)C[C@@](O)(C(=O)CO)C[C@@H]3O[C@H]1C[C@H](N)[C@H](O)[C@H](C)O1 : ____
~50%

====

Tested on: porcine liver esterase (PLE)
Experiment: Esterase-mediated RSSH release kinetics with HPE-IAM trapping (UPLC-MS)
Type: biochemical
Conditions: pig, porcine liver esterase; precursor 25 μM, PLE 1 U mL^−1, HPE-IAM 250 μM, ammonium bicarbonate pH 7.4, DTPA, 37 °C; read-out: t1/2 (min) Precursor consumption
result.type: half-life at 25 µM (min)
Report the figure in min without appending any unit label.

COC(=O)C(NC(C)=O)C(C)(C)SSC(=O)N(C)CCOC(C)=O (stereo not shown) [APT-1]    17.1
COC(=O)SSC(C)(C)C(NC(C)=O)C(=O)N(C)CCC[P+](c1ccccc1)(c1ccccc1)c1ccccc1 (stereo not shown) [AST-2-TPP]    20.7
COC(=O)SSC(C)(C)C(NC(C)=O)C(=O)OC (stereo not shown) [AST-2]    50.1

# get_value(readout='half-life at 25 µM', item= CC(=O)NC(C(=O)N(C)CCC[P+](c1ccccc1)(c1ccccc1)c1ccccc1)C(C)(C)SSC(=O)N(C)CCOC(C)=O (stereo not shown) [APT-1-TPP] )
5.2

====

Assay: Stability of RSSH precursors with glutathione by HPLC
Type: physicochemical
Conditions: precursor 100 µM, GSH 500 µM (5 equiv), PBS pH 7.4, 37 °C; in min-1
Reported decomposition rate constant in the presence of GSH values for the following molecules.
Give a plain numeric answer without units written out.

CC(=O)NC(C(=O)N(C)CCC[P+](c1ccccc1)(c1ccccc1)c1ccccc1)C(C)(C)SSC(=O)N(C)CCOC(C)=O (stereo not shown)    0.01236
COC(=O)SSC(C)(C)C(NC(C)=O)C(=O)OC (stereo not shown)    0.08081

Which decomposition rate constant in the presence of GSH reading was recorded for the molecule COC(=O)SSC(C)(C)C(NC(C)=O)C(=O)N(C)CCC[P+](c1ccccc1)(c1ccccc1)c1ccccc1 (stereo not shown) ?
0.1094

Given the molecule COC(=O)C(NC(C)=O)C(C)(C)SSC(=O)N(C)CCOC(C)=O (stereo not shown) , what is its reported decomposition rate constant in the presence of GSH?
0.01749

====

Reported half-life at 100 µM is given for each of the following compounds.
Test: Stability of RSSH precursors with glutathione by HPLC
Type: physicochemical
Conditions: PBS with glutathione (500 µM), pH 7.4, precursor 100 µM, GSH 500 µM (5 equiv), PBS pH 7.4, 37 °C; read-out: decomposition half-life (t1/2) in the presence of GSH
Provide the reading as a plain figure in min.

COC(=O)SSC(C)(C)C(NC(C)=O)C(=O)N(C)CCC[P+](c1ccccc1)(c1ccccc1)c1ccccc1 (stereo not shown)    6.3
COC(=O)C(NC(C)=O)C(C)(C)SSC(=O)N(C)CCOC(C)=O (stereo not shown)    39.7
COC(=O)SSC(C)(C)C(NC(C)=O)C(=O)OC (stereo not shown)    8.6

From here, focus on the item given below.
# lookup: half-life at 100 µM of CC(=O)NC(C(=O)N(C)CCC[P+](c1ccccc1)(c1ccccc1)c1ccccc1)C(C)(C)SSC(=O)N(C)CCOC(C)=O (stereo not shown)
56.2
